Tested on: SN12C renal
Test: NCI-60 one-dose screen, 48 h
Details: 10 µM unless noted
About 83,000 compounds went through this panel and 20% of them were active in at least one assay; those are over-represented in the sample as a whole. Calls of active or inactive are those of the source. The calls were made as follows: active = growth percent below 10; inactive = the rest.
Outcome codes: y for active, n for inactive

> print(dat)
                                    molecule  assaytarget  labelclass
 1  N#C/C(C(=O)c1ccccc1)=C1/C(=O)Nc2ccc(F)cc21  SN12C renal           n
 2  O=C(N[C@@H]1CCCc2ccccc21)[C@H](CCC(=O)N1CCN(C2CCCCC2)CC1)N1C(=O)[C@@H](N2C(=O)OC[C@@H]2c2ccccc2)[C@H]1/C=C/c1ccccc1  SN12C renal           n
 3  O=C1COCCN1c1ccc(NCc2cn(Cc3ccccc3)c3ccccc23)cc1  SN12C renal           n
 4                    O=C(NCc1ccccc1)C(Cl)Cl  SN12C renal           n
 5    Cc1ccc(NCCN2CCCCC2)c2c(=O)c3ccccc3sc12  SN12C renal           n
 6  C=C(C)[C@@H]1CC[C@]2(C(=O)O)CC[C@]3(C)[C@H](CC[C@@H]4[C@@]5(C)C/C(=C/c6ccco6)C(=O)C(C)(C)[C@@H]5CC[C@]43C)[C@@H]12  SN12C renal           y
 7  O=C(CCCCCCSc1nc(-c2ccc(Cl)cc2)cc(-c2ccc(Cl)cc2)n1)NO  SN12C renal           n
 8  CCCCC(CCCCCC(CCCC)C1NC(C)Cc2cc(OC)c(OC)cc21)C1NC(C)Cc2cc(OC)c(OC)cc21 (configuration not stated)  SN12C renal           y
 9  CCOC(=O)C(C(C)=O)c1nc2sc3cc(Cl)c(Cl)cc3n2c(=O)c1C#N (configuration not stated)  SN12C renal           n
10  C=C(C)[C@@H]1CC[C@]2(C(N)=O)CC[C@]3(C)[C@H](CC[C@@H]4[C@@]5(C)C/C(=C/c6cccnc6)C(=O)C(C)(C)[C@@H]5CC[C@]43C)[C@@H]12  SN12C renal           n
11  C=C(C)[C@@H]1CC[C@]2(C)[C@H](CC=C3[C@@H]4[C@@H](C)[C@H](C)CC[C@]4(C(N)=O)CC[C@]32C)[C@@]1(C)CCC#N  SN12C renal           y
12  COc1cc2c(c(OC)c1OC)-c1ccc(NNC(N)=S)c(=O)cc1[C@@H](NC(C)=O)CC2  SN12C renal           n
13  COc1cc(NCc2cn(-c3ccc(C(=O)O)cc3)nc2-c2ccc(C(=O)O)cc2)cc(OC)c1OC  SN12C renal           n
14      CSc1nc2sc3cc(Cl)c(Cl)cc3n2c(=N)c1C#N  SN12C renal           n
15  CC1(C)[C@@H](NOCCCN)CC[C@]2(C)[C@H]3C(=O)C=C4[C@@H]5C[C@](C)(C(=O)O)CC[C@]5(C)CC[C@@]4(C)[C@]3(C)CC[C@@H]12  SN12C renal           y
16  CCCCOC(=O)c1c(C)[nH]c(/C=C2\N=C(c3ccc[nH]3)C=C2OC)c1C  SN12C renal           y
17  COc1ccc(NC(=S)NNc2ccc(-c3ccc(OC)c(OC)c3)nn2)cc1  SN12C renal           n
